- target_desc: Sentrin-specific protease 8 (Homo sapiens, UniProt Q96LD8)
- Sequence (Q96LD8 whole entry): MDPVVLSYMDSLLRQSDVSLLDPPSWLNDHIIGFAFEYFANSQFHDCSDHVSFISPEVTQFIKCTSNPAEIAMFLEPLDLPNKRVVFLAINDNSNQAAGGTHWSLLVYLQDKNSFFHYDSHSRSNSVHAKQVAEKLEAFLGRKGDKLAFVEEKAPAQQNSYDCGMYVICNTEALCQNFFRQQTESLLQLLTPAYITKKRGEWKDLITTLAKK
- Assay type: functional
Active and inactive are the calls of the source.
Assignment: determine reported IC50 for the given compounds.

Q. What does the record list as IC50 for O=[N+]([O-])c1ccc(C=NN2CCOCC2)s1 ?
A. 31.9 µM (active)

Q. And COC/C=C/C1=CC2=CC(=O)C(C)(OC(=O)c3cnc4ccccc4n3)C(=O)C2=CN1CCCCO (stereo not given) ?
A. 17.6 µM (active)

Q. And Cc1n[nH]c(O)c1C(c1cc(Br)ccc1O)c1c(C)n[nH]c1O ?
A. 23 µM (active)

Q. And COC(=O)CCCC1=CC2=CC(=O)C(C)(OC(=O)c3cccs3)C(=O)C2=CN1CC(C)C (stereo not given) ?
A. 11.1 µM (active)

Q. And CC1(OC(=O)CCc2ccccc2)C(=O)C=C2C=C3CCCN3C=C2C1=O (stereo not given) ?
A. 18.1 µM (active)

====

Assignment: determine reported IC50 for the given compounds.
- target_desc: UniProtKB P31941
- Sequence (P31941 whole entry): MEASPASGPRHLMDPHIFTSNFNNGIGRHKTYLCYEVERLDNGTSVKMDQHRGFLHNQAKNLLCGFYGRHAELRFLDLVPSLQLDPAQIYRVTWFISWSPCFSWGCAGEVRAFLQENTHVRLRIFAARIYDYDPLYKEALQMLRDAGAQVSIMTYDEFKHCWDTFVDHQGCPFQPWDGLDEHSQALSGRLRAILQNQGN
- experimental_protocol: Dose Response confirmation of small molecule APOBEC3A DNA Deaminase Inhibitors via a fluorescence-based single-stranded DNA deaminase assay. [Related pubchem assays (depositor defined):AID493011, AID493024]
- Type: functional
Calls of active or inactive are those of the source.

Q. What does the record list as IC50 for C[N+]1(CC(=O)OCCCc2ccccc2)CCOCC1 ?
A. 1.27 µM (active)

Q. And CC(C)(C)NC(=O)CSc1nc2ccc(NC(=O)CSc3nnc(N)s3)cc2s1 ?
A. 3.87 µM (active)

Q. And CCCCN(C(=O)c1cnccn1)c1c(N)n(CCC)c(=O)[nH]c1=O ?
A. 13.7 µM (active)

Q. And Cn1nnnc1SCC(=O)Nc1ccc(Br)cc1Cl ?
A. 5.35 µM (active)

====

- experimental_protocol: HIV-1 AD8 envelope cell-cell fusion blockers – cherry-pick, dose response (AID 652062);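 further: luciferase signal from cell-cell fusion driven by HIV-1 clade B AD8 Env; potency is for inhibitors of fusion seen as a drop in luminescence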
- Format: functional, cell-based
Active and inactive are the calls of the source.
value_kind: AC50

Q. What does the record list as AC50 for O=C(Nc1ccc(C(F)(F)F)cc1)c1cccn(Cc2ccc3c(c2)OC(F)(F)O3)c1=O ?
A. 6 µM (active)

Q. And CCc1nc2ccccc2c(C(=O)OCC(=O)Nc2cccc(S(=O)(=O)N3CCOCC3)c2)c1C ?
A. 13.9 µM (active)

Q. And CC1CCC(C(C)C)C(OC(=O)Cn2c(-c3ccc(Cl)cc3)[n+](C)c3ccccc32)C1 (centres undefined) ?
A. 10.8 µM (active)

Q. And Cc1ccc2c(c1)[C@H]1[C@H](CO2)[C@H](c2ccccc2)[C@]2(C)C(=O)N(CC3CCCO3)CC(=O)N12 (some centres undefined) ?
A. 9.2 µM (active)

====

- target_desc: Short transient receptor potential channel 4 (Mus musculus)
- Sequence (Q9QUQ5 whole entry): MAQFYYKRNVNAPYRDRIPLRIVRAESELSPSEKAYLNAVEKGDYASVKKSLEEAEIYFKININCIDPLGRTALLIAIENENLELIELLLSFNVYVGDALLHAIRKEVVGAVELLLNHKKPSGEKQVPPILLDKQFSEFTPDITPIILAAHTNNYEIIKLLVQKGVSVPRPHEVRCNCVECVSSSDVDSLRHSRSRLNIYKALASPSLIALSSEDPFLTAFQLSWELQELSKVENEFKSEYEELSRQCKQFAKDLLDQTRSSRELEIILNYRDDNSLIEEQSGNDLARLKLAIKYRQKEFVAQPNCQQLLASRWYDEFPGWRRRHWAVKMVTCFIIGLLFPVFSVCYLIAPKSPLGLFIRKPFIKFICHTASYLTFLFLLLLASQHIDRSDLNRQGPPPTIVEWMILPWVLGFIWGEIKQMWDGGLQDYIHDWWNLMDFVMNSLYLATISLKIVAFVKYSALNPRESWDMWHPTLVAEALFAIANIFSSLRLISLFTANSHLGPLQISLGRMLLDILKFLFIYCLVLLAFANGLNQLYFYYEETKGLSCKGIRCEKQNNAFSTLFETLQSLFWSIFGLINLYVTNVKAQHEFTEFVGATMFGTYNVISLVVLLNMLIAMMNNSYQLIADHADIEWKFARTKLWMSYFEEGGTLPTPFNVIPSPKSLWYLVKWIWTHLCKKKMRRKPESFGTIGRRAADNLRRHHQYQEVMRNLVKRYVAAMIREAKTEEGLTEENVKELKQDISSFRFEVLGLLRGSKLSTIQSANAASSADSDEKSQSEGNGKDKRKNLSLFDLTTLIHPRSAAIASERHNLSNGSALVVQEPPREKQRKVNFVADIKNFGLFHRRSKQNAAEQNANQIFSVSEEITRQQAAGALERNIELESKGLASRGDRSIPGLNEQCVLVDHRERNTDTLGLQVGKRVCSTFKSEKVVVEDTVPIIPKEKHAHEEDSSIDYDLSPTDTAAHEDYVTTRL
- experimental_protocol: calcium entry via TRPC4 opening agents – cell-based, HEK293 TRPC4/mu-opioid, Fluo-4 calcium, dose response (AID 434937)
- Type: functional
Counter-ions that a name gives are not always drawn. Calls of active or inactive are those of the source.
value_kind: EC50

Q. What does the record list as EC50 for COc1ccc(C(CNC(=O)CN2C(=O)NC3(CCCC3)C2=O)N(C)C)cc1 (centres undefined) ?
A. 3.76 µM (active)

Q. And O=c1c2cc(Br)ccc2nc(-c2ccc(Cl)cc2)n1O ?
A. 6.68 µM (active)

Q. And CCN1CCN(c2ccc(S(=O)(=O)N3CCOCC3)cc2NC(=O)C(C)Oc2cccc(Cl)c2)CC1 (centres undefined) ?
A. 5.96 µM (active)

Q. And Cc1ccc(/C=N\NC(=O)C2COc3cc4ccccc4cc3O2)o1 (centres undefined) ?
A. 1.88 µM (active)

Q. And COc1ccc(C(CNC(=O)c2cccc(Br)c2)N2CCCC2)cc1 (centres undefined) ?
A. 1.68 µM (active)

Q. And O=C1S/C(=C\c2ccc(N3CCOCC3)o2)C(=O)N1Cc1c(F)cccc1Cl ?
A. 6.68 µM (active)

Q. And CC[C@@H](CO)NC(=O)[C@@H]1C=C2c3cccc4c3c(cn4C)C[C@H]2N(C)C1 [METHYSERGIDE MALEATE] ?
A. 1.5 µM (active)

Q. And CCN1/C(=C\c2ccc3ccccc3[n+]2CC)Sc2cc(C)ccc21 ?
A. 4.73 µM (active)

Q. And O=C(NCCc1ccccn1)C(F)(F)C(F)(F)C(F)(F)C(F)(F)C(F)(F)C(F)F ?
A. 4.73 µM (active)

Source listed as ChEMBL document CHEMBL1201862.
